Please respond with reported growth inhibition for every item in the list.
Assay: NCI Yeast Anticancer Drug Screen. Data for the cln2 rad14 strain (AID 165);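 note: 0% = growth equal to vehicle treated cultures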
Settings: S. cerevisiae cln2 rad14 strain, at 50.0 µM, hits give high values
This is part of a sample that, as a whole, favours compounds with a hit. Of some 79,000 tested, about 15% had one in any assay.
Numbers only, in %.

C/C(CCc1cnc2ccccc2c1)=N/NC(N)=O
37.8
CCN(CCO)CC(=O)c1ccc(Cl)c(Cl)c1
-13.8

# map each compound to its growth inhibition
1. COc1ccc2cc1Oc1ccc(cc1)CC1=NCCc3cc(OC)c(OC)c(c31)Oc1cc3c(cc1OC)CCN(C)C3C2 (configuration not stated)
2. O=[N+]([O-])c1ccc2nc(Cl)cnc2c1
3. CCCCOC(=O)c1ccc(NC(=O)Nc2ccc(SC)cc2)cc1
4. COC(=O)/C=C/c1ccc(OC)c(OC)c1
5. CCCCc1c2c(nc3c1CCc1cc4cc5c(nc4nc1-3)-c1nc3c(c(CCCC)c1CC5)CCCC3)CCCC2
6. COc1cc(O)c2c(=O)c(OC)c(-c3ccc4c(c3)OCO4)oc2c1
7. COc1ccc(N2C(=O)c3c(c4[nH]c5ccccc5c4c4ccc(C(C)(C)C)cc34)C2=O)cc1
8. CC(O)CN1CCOCC1 (configuration not stated)

4.5
-5.2
-8.75
-2.2
-45.7
2.35
19.6
15.2

# map each compound to its growth inhibition
1. O=C(O)/C=C(/Oc1ccccc1)c1ccccc1
2. COC(=O)C1C2CC3C(C2=O)C31 (configuration not stated)

[-8.7, 21.1]

---

Please respond with reported growth inhibition for every item in the list.
Assay: NCI Yeast Anticancer Drug Screen. Data for the mec2-1 strain (AID 157)
Conditions: S. cerevisiae mec2-1 strain, at 50.0 µM, hits give high values
About 79,000 compounds went through this panel and 15% of them were active in at least one assay; those are over-represented in the sample as a whole.
Numbers only, in %.

Previously resolved entries follow.
O=C(/C(=C/c1ccccc1)c1ccc(Cl)cc1)c1ccccc1
13.9
C=C1C(=O)OC2/C=C(\C)C(=O)CC3OC(C)(C)OC3(C)CC(OC(=O)/C(C)=C/C)C12 (stereo not given)
-14
CC(=O)OC(OC(C)=O)c1cccc2ccccc12
-9.3
Cc1cc2nc3n(c2cc1C)C(=O)c1cc2ccccc2cc1-3
0.6

# ---- query compound ----
Provide only the value of recorded growth inhibition for CCOP(=O)(OCC)C(Cc1cn(S(=O)(=O)c2ccc(C)cc2)cn1)C(=O)O (stereo not given) 12.5

---

Assay: NCI Yeast Anticancer Drug Screen. Data for the cln2 rad14 strain (AID 165);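 note: 0% = growth equal to vehicle treated cultures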
Conditions: S. cerevisiae cln2 rad14 strain, at 50.0 µM
This is part of a sample that, as a whole, favours compounds with a hit. Of some 79,000 tested, about 15% had one in any assay. Calls of active or inactive are those of the source. Rule as the data show it: active = growth inhibition above about 70%; inactive = the rest.
Hi there, use one of these labels in your reply, thanks! label 1 (active), label 0 (inactive)

O=C(O)c1cc(=O)[nH]c(SCc2ccc(Cl)cc2Cl)n1
label 0
S=C1NC(c2ccccc2)Nc2ccccc21 (stereo not given)
label 0
O=S1(=O)OC(c2ccc(O)cc2)(c2ccc(O)cc2)c2ccccc21
label 0

Hello, I am checking results. What call was entered for `CCCCS(=O)(=O)Nc1cccc(C(=O)O)c1` ? label 0

Hello, I am checking results. What call was entered for `CO[C@@H]1O[C@H](C(=O)c2ccccc2)[C@H]2OC(C)(C)O[C@@H]12` ? label 0

Hello, I am checking results. What call was entered for CCOC(=O)CNc1nnnn1C1OC(CO)C(O)C1O (stereo not given) ? label 0
